targetUnderTest: tooth pellicle (thin film derived from salivary glycoproteins, formed in a human mouth) (human)
protocol: phage ELISA on pellicle-coated bovine enamel, anti-M13-HRP, normalized to internal control
measurementType: O.D.450 (normalized)

Illustrative cases are given below, each with its answer.
HKNAIQPVNDATTLDTTM [DenP9] ... 1.36
SNATMYNIQSHSHHQ [DenP24] ... 0.979
ELDHDSRHYMNGLQRKVT [DenP15] ... 1.11

(a) DLGTFPNRTLKMAAH [DenP11]
(b) SEARARTFNDHTTPMPII [DenP14]
(c) QAAQVHMMQHSRPTT [DenP13]
Q) # desc sort on O.D.450 (normalized) across 3 binders Returns: the labels listed in the requested order.
A) b, a, c
(b: 2.5, a: 1.66, c: 0.845)
